Tested on: HCV replicon, genotype-1a variant with glutamine 30 changed to glutamate in the NS5A protein
experiment: microbe, parasite or virus in culture
Format: cell-based, HCV genotype 1a
condition-details: HCV replicon genotype 1a Q30E (Q→E) variant; test compound titrated with an NS5A-targeting compound (BMS-790052 fixed at 200 nM); ranking of synergist activity
This section presents molecules with their documented Fold-Synergistic 1a (Q30E) values.

Below: 5 molecules and their reported Fold-Synergistic 1a (Q30E).
molecule=CC(C)CC(=O)N[C@H](c1nc(-c2ccc3cc(-c4ccc(-c5cnc([C@@H](NC(=O)CC(C)C)C(C)C)[nH]5)cc4)ccc3c2)c[nH]1)C(C)C readout_value=">10 fold"
molecule=CC(C)N(CC(F)(F)F)C(=O)C(=O)N[C@H](c1nc(-c2ccc(-c3ccc(-c4c[nH]c([C@@H](NC(=O)C(=O)N(CC(F)(F)F)C(C)C)C(C)(C)C)n4)cc3)cc2)c[nH]1)C(C)(C)C readout_value=">100 fold"
molecule=CC(C)(C)[C@H](NC(=O)[C@@H]1CCC(=O)N1)c1nc(-c2ccc(-c3ccc(-c4c[nH]c([C@@H](NC(=O)[C@@H]5CCC(=O)N5)C(C)(C)C)n4)cc3)cc2)c[nH]1 readout_value=">10 fold"
molecule="CC(C)(C(=O)N[C@H](c1nc(-c2ccc(-c3ccc(-c4c[nH]c([C@@H](NC(=O)C(C)(C)C(=O)N5CC6CC6C5)C(C)(C)C)n4)cc3)cc2)c[nH]1)C(C)(C)C)C(=O)N1CC2CC2C1 (stereo partly shown)" readout_value=">100 fold"
molecule=CN(C)C(=N[C@H](c1ncc(-c2ccc(-c3ccc(-c4cnc([C@@H](NC(=O)C5(C6(O)CCOCC6)CCC5)C(C)(C)C)[nH]4)cc3)cc2)[nH]1)C(C)(C)C)N(C)C readout_value=">10 fold"

Qu. Entry `CN(C(=O)OC(C)(C)C)C1(C(=O)N[C@H](c2nc(-c3ccc(-c4ccc(-c5c[nH]c([C@@H](NC(=O)C6(N(C)C(=O)OC(C)(C)C)CC6)C(C)(C)C)n5)cc4)cc3)c[nH]2)C(C)(C)C)CC1` has what Fold-Synergistic 1a (Q30E)?
Ans. >100 fold

Qu. I'd like to know its Fold-Synergistic 1a (Q30E). The molecule in question is `CCN(CCOC)C(=O)C(C)(C)C(=O)N[C@H](c1nc(-c2ccc(-c3ccc(-c4c[nH]c([C@@H](NC(=O)C(C)(C)C(=O)N(CC)CCOC)C(C)(C)C)n4)cc3)cc2)c[nH]1)C(C)(C)C`
Ans. >10 fold

Qu. Requested read-out: Fold-Synergistic 1a (Q30E). Entry: `CC(C)(C)OC(=O)N1C[C@@H](O)C[C@H]1C(=O)N[C@H](c1nc(-c2ccc(-c3ccc(-c4c[nH]c([C@@H](NC(=O)[C@@H]5C[C@H](O)CN5C(=O)OC(C)(C)C)C(C)(C)C)n4)cc3)cc2)c[nH]1)C(C)(C)C`
Ans. >100 fold

Qu. # lookup: Fold-Synergistic 1a (Q30E) of `CCC(=O)N1CCC[C@H]1c1ncc(-c2ccc(-c3ccc(-c4cnc([C@@H]5CCCN5C(=O)CC)[nH]4)cc3)cc2)[nH]1`
Ans. <10 fold

Qu. Given the molecule `CC(C)(C)OC(=O)N1[C@H](C(=O)N[C@H](c2nc(-c3ccc(-c4ccc(-c5c[nH]c([C@@H](NC(=O)[C@@H]6COC(C)(C)N6C(=O)OC(C)(C)C)C(C)(C)C)n5)cc4)cc3)c[nH]2)C(C)(C)C)COC1(C)C` , what is its reported Fold-Synergistic 1a (Q30E)?
Ans. >100 fold

Qu. Fill in: Fold-Synergistic 1a (Q30E) of `C[C@@H]1CCCCN1C(=O)C(C)(C)C(=O)N[C@H](c1nc(-c2ccc(-c3ccc(-c4c[nH]c([C@@H](NC(=O)C(C)(C)C(=O)N5CCCC[C@H]5C)C(C)(C)C)n4)cc3)cc2)c[nH]1)C(C)(C)C` is ___
Ans. >100 fold

---

System: HCV replicon, genotype-1a variant with glutamine 30 changed to glutamate in the NS5A protein
experiment: microbe, parasite or virus in culture
Format: cell-based, HCV genotype 1a
condition-details: HCV replicon genotype 1a Q30E (Q→E) variant; test compound titrated with an NS5A-targeting compound (BMS-790052 fixed at 200 nM); ranking of synergist activity
The molecules listed here are annotated with their Fold-Synergistic 1a (Q30E).

molecule="COc1ccccc1C1OC(=O)C[C@@H]1C(=O)N[C@H](c1nc(-c2ccc(-c3ccc(-c4c[nH]c([C@@H](NC(=O)[C@H]5CC(=O)OC5c5ccccc5OC)C(C)(C)C)n4)cc3)cc2)c[nH]1)C(C)(C)C (some centres unmarked)" reported_property="Fold-Synergistic 1a (Q30E)" readout_value=">10 fold"

Qu. What value of Fold-Synergistic 1a (Q30E) has been recorded for this entry: `CC[C@H](NC(=O)CC(C)C)c1nc(-c2ccc(-c3ccc(-c4c[nH]c([C@H](CC)NC(=O)CC(C)C)n4)cc3)cc2)c[nH]1`
Ans. >100 fold

Qu. If you can, please state the reported Fold-Synergistic 1a (Q30E) value of `CC(C)[C@H](NC(=O)C1CC(=O)C1)c1nc(-c2ccc(-c3ccc(-c4c[nH]c([C@@H](NC(=O)C5CC(=O)C5)C(C)C)n4)cc3)cc2)c[nH]1` .
Ans. >10 fold

Qu. Need Fold-Synergistic 1a (Q30E) of CC(C)(C)[C@H](NC(=O)C1CC(=O)N(c2ccccc2O)C1)c1nc(-c2ccc(-c3ccc(-c4c[nH]c([C@@H](NC(=O)C5CC(=O)N(c6ccccc6O)C5)C(C)(C)C)n4)cc3)cc2)c[nH]1 (some centres unmarked) , thanks.
Ans. >100 fold

Qu. I have this molecule here, `O=C(C(c1ccccc1)c1ccccc1)N1CCC[C@H]1c1ncc(-c2ccc(-c3ccc(-c4cnc([C@@H]5CCCN5C(=O)C(c5ccccc5)c5ccccc5)[nH]4)cc3)cc2)[nH]1` , and I need its recorded Fold-Synergistic 1a (Q30E).
Ans. <10 fold

---

System: HCV replicon, genotype-1a variant with glutamine 30 changed to glutamate in the NS5A protein
experiment: microbe, parasite or virus in culture
Type: cell-based, HCV genotype 1a
condition-details: HCV replicon genotype 1a Q30E (Q→E) variant; test compound titrated with an NS5A-targeting compound (BMS-790052 fixed at 200 nM); ranking of synergist activity
Fold-Synergistic 1a (Q30E) overview

substance_smiles=CC(C)(C)[C@H](NC(=O)C(F)(F)C1(O)CCOCC1)c1nc(-c2ccc(-c3ccc(-c4c[nH]c([C@@H](NC(=O)C(F)(F)C5(O)CCOCC5)C(C)(C)C)n4)cc3)cc2)c[nH]1 readout_value=">100 fold"
substance_smiles=CN(CC(F)(F)F)C(C)(C)C(=O)N[C@H](c1nc(-c2ccc(-c3ccc(-c4c[nH]c([C@@H](NC(=O)C(C)(C)N(C)CC(F)(F)F)C(C)(C)C)n4)cc3)cc2)c[nH]1)C(C)(C)C readout_value=">100 fold"
substance_smiles=CC(C)[C@H](NC(=O)c1ccccc1F)c1nc(-c2ccc(-c3ccc(-c4c[nH]c([C@@H](NC(=O)c5ccccc5F)C(C)C)n4)c(F)c3)cc2)c[nH]1 readout_value=">100 fold"

Qu. What Fold-Synergistic 1a (Q30E) value was documented for this compound, `CN1CCN(C(=O)C(=O)N[C@H](c2nc(-c3ccc(-c4ccc(-c5c[nH]c([C@@H](NC(=O)C(=O)N6CCN(C)CC6)C(C)(C)C)n5)cc4)cc3)c[nH]2)C(C)(C)C)CC1` ?
Ans. >100 fold

Qu. Given the compound `CC(C)CC(=O)N[C@@H](Cc1ccccc1)c1nc(-c2ccc(-c3ccc(-c4c[nH]c([C@H](Cc5ccccc5)NC(=O)CC(C)C)n4)cc3)cc2)c[nH]1` , what is its reported Fold-Synergistic 1a (Q30E)?
Ans. >10 fold

Qu. # lookup: Fold-Synergistic 1a (Q30E) of `CC(C)(C)[C@H](NC(=O)C(C)(C)[C@]1(O)C[C@H]2CC(F)(F)C[C@H]2C1)c1nc(-c2ccc(-c3ccc(-c4c[nH]c([C@@H](NC(=O)C(C)(C)[C@]5(O)C[C@H]6CC(F)(F)C[C@H]6C5)C(C)(C)C)n4)cc3)cc2)c[nH]1`
Ans. >100 fold

Qu. So what does the record say about Fold-Synergistic 1a (Q30E) for `CCCCC(=O)N1CCC[C@H]1c1ncc(-c2ccc(-c3ccc(-c4cnc([C@@H]5CCCN5C(=O)CCCC)[nH]4)cc3)cc2)[nH]1` ?
Ans. <10 fold

Qu. Which Fold-Synergistic 1a (Q30E) value is on record for `COC(=O)CCC(=O)N1CCC[C@H]1c1ncc(-c2ccc(-c3ccc(-c4cnc([C@@H]5CCCN5C(=O)CCC(=O)OC)[nH]4)cc3)cc2)[nH]1` ?
Ans. <10 fold

Qu. Query: Fold-Synergistic 1a (Q30E); subject: `O=C(c1nc2ccccc2s1)N1CCC[C@H]1c1ncc(-c2ccc(-c3ccc(-c4cnc([C@@H]5CCCN5C(=O)c5nc6ccccc6s5)[nH]4)cc3)cc2)[nH]1`
Ans. >10 fold

Qu. Using the record for `Cc1cc(-c2ccc(-c3c[nH]c([C@@H](NC(=O)c4c(F)cccc4Cl)C(C)C)n3)cc2)ccc1-c1c[nH]c([C@@H](NC(=O)c2c(F)cccc2Cl)C(C)C)n1` , report its Fold-Synergistic 1a (Q30E).
Ans. >100 fold

Attribution: patent US9326973B2
